Tested on: N2a-cl3
TEST_DESCRIPTION: Antiprion activity against sheep RML prion protein-infected in mouse ScN2a-cl3 cells assessed as reduction of PrPSc level after 5 days by ELISA relative to control
Assay type: cell-based
Set-up: concentration or dose not given beside the values
MEASUREMENT_PARAMETERS: Ovis aries, dose or concentration not given here
MEASURED_METRIC: inhibition (%)
Supply the numeric figure in %, leaving out any unit text.

Supply measured inhibition of `c1ccc(CN2CCN(c3ccccc3)CC2)cc1` in your reply.
5

Hello, please tell me recorded inhibition for this one: `Clc1ccc(N2CCN(Cc3ccc(Br)s3)CC2)cc1`
12

Given `CC(=O)c1ccc(N2CCN(Cc3ccco3)CC2)cc1` , respond with its inhibition.
96

Consider the compound `CC(=O)c1ccc(N2CCN(Cc3ccccc3)CC2)cc1` and give its recorded inhibition.
94

Answer with the recorded inhibition for the compound listed here: `CC(=O)c1ccc(N2CCN(Cc3cccnc3)CC2)cc1`
73

Hello, please tell me recorded inhibition for this one: `Clc1ccc(N2CCN(Cc3cccnc3)CC2)cc1`
0

Recall and state the measured inhibition for `c1ccc(N2CCN(Cc3cccnc3)CC2)cc1` .
4

State its inhibition for this compound: `Clc1ccc(N2CCN(Cc3ccccc3)CC2)cc1`
6

Please indicate inhibition recorded for `Clc1cccc(N2CCN(Cc3ccco3)CC2)c1`
6

---

Tested on: Plasma
TEST_DESCRIPTION: Cmax in wild type FVB mouse plasma at 10 mg/kg, po by LC-MS analysis
Format: ADME, organism-based
Parameters: dose 10 mg/kg, route oral
MEASUREMENT_PARAMETERS: in vivo
MEASURED_METRIC: Cmax (nM)
Dear colleague, please return just the value in nM, with no unit written.

Determine its reported Cmax: `c1cncc(CN2CCN(c3ccc(-c4nc5ccccc5s4)cc3)CC2)c1`
600

---

Tested on: Liver
TEST_DESCRIPTION: Metabolic stability in mouse liver microsomes assessed as half life by LC-MS analysis
Assay type: ADME, Microsome
MEASURED_METRIC: t1/2 (min)
Output spec: scalar in min, unitless text.

Provide one value: measured t1/2 of `c1cncc(CN2CCN(c3ccc(-c4nc5ccccc5o4)cc3)CC2)c1`
9.2

Consider the molecule `Fc1ccc(CN2CCN(c3ccc(-c4nc5ccccc5o4)cc3)CC2)cn1` . State its measured t1/2.
7.3

Quote t1/2 reported for `COc1ccc(CN2CCN(c3ccc(-c4nc5ccccc5o4)cc3)CC2)cn1` please.
25.2

Name the recorded t1/2 of the item `c1cncc(CN2CCN(c3ccc(-c4nc5ccccc5s4)cc3)CC2)c1` in your answer.
17.3

---

I'd appreciate it if you could supply inhibition values for the items below.
Tested on: N2a-cl3
TEST_DESCRIPTION: Antiprion activity against sheep RML prion protein-infected in mouse ScN2a-cl3 cells assessed as reduction of PrPSc level after 5 days by ELISA relative to control
Format: cell-based
Design: concentration or dose not given beside the values
MEASUREMENT_PARAMETERS: Ovis aries, dose or concentration not given here
Give just the numeric value; % need not be written.

Provide measured inhibition value, entry: `Clc1cccc(N2CCN(Cc3cccnc3)CC2)c1`
4

Give the measured inhibition for `COc1ccc(N2CCN(Cc3ccc(Br)o3)CC2)cc1`
6

Answer with reported inhibition of `Fc1ccc(N2CCN(Cc3cccnc3)CC2)cc1`
27

Indicate the recorded inhibition value for this compound: `CC(=O)c1ccc(N2CCN(Cc3cccs3)CC2)cc1`
91

Retrieve inhibition measured for `Clc1ccc(N2CCN(Cc3ccco3)CC2)cc1` and print it.
13

// fetch inhibition given entry `Clc1cccc(N2CCN(Cc3cc(Br)cs3)CC2)c1`
34

// fetch inhibition given entry `COc1ccc(N2CCN(Cc3ccccc3)CC2)cc1`
7

Indicate the recorded inhibition value for this compound: `COc1ccc(N2CCN(Cc3cccs3)CC2)cc1`
16

Look up and report measured inhibition for this entry: `Fc1ccc(N2CCN(Cc3ccccc3)CC2)cc1`
7

Tell me its inhibition given `Clc1cccc(N2CCN(Cc3ccccc3)CC2)c1` as the entry.
7

Answer with reported inhibition of `CC(=O)c1ccc(N2CCN(Cc3ccc(C)o3)CC2)cc1`
78

Given `CC(=O)c1ccc(N2CCN(Cc3sccc3C)CC2)cc1` , respond with its inhibition.
78

Fill in inhibition for record `COc1ccc(N2CCN(Cc3cccnc3)CC2)cc1`
10
